Hey, just so you know, these numbers are from PubChem BioAssay AID1159580.

Each entry below lists one item and its recorded normalized growth value.
Assay: chemical genetic growth profiling, strain panel (AID 1159580);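 further: tested at 20 µM; growth read once vehicle control cultures reached saturation at 30 °C; 1 = growth at the plate median or of vehicle wells; lower values mean less growth of the strain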
Conditions: S. cerevisiae deletion strains, growth OD, locus YGR078C, strain PAC10, stronger effect = lower value
The campaign covered roughly 5,500 compounds. About 2,000 (36%) were called active. Inconclusive results (about 18%) are left out. The list shows a part of the results.
Just the number.

CC(=O)N[C@@H]1[C@@H](C(O)[C@H](O)CO)O[C@](O)(C(=O)O)C[C@@H]1O (stereo partly drawn) ... 1.03
CC(C)(C)OC(=O)N1CCN(Cc2ccccc2)CC1 ... 0.999

Here's the next entry for you.
Name the recorded normalized growth for "COC(=O)c1ccc(S(=O)(=O)NCc2ccccc2)n1C" .
1.02

###

Assay: chemical genetic growth profiling, strain panel (AID 1159580);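 further: tested at 20 µM; growth read once vehicle control cultures reached saturation at 30 °C; 1 = growth at the plate median or of vehicle wells; lower values mean less growth of the strain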
Details: S. cerevisiae deletion strains, growth OD, locus YLR342W, strain FKS1, stronger effect = lower value
Out of some 5,500 compounds screened, about 2,000 (36%) were called active. Not shown: some 18% with an inconclusive outcome. The list shows a part of the results.
quantity.kind: normalized growth
Lab note: record just the number, no unit beside it.

Give the measured normalized growth of "O=C1O[C@@H](CO)[C@H](O)[C@@H](O)[C@@H]1O" .
1.03

Same read-out for CC(COc1ccccc1)N(CCCl)Cc1ccccc1 (configuration not stated) ?
0.989

Same again, this time with CC1(C)C2CC(=O)O[C@@]3(C)C4=CC(=O)O[C@@H](c5ccoc5)[C@]4(C)CCC3[C@@]2(C)C=C[C@H]1O (some centres not stated)
0.977

Repeat for the following compound: "NCCCCN=C(N)N"
1.01

Lookup "O=C(O)CNCP(=O)(O)O"
1.03

Consider next the compound C#C[C@]1(O)CCC2C3CCc4cc(O)ccc4C3CC[C@@]21C (some centres not stated) in the same way.
0.983

Queued: CC1(C)CC2C1CCC1(C)OC2(C)CCC1O (configuration not stated)
1.03

###

Test: chemical genetic growth profiling, strain panel (AID 1159580);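 further: tested at 20 µM; growth read once vehicle control cultures reached saturation at 30 °C; 1 = growth at the plate median or of vehicle wells; lower values mean less growth of the strain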
Settings: S. cerevisiae deletion strains, growth OD, locus YAL013W, strain DEP1
In all, about 5,500 compounds went through this assay and about 2,000 (36%) were called active. About 18% were inconclusive and are not listed. Rule as the data show it: active = normalized growth mostly below about 0.91 (no sharp cut-off); inconclusive = no clear call, values can overlap the other calls; inactive = mostly above about 0.92. Some of the results follow.
Log the outcome using a class from 1 = active, 0 = inactive

Examples with answers:
CC(=O)Oc1cc(C)c2c(c1C(OC(C)=O)OC(C)=O)Oc1c(c(C)c(OC(C)=O)c3c1C(OC(C)=O)OC3=O)OC2=O (centres undefined) ... 0
CN1CCc2cc(O)cc3c2[C@H]1Cc1ccc(O)c(O)c1-3 ... 1
COc1ccc(CN(Cc2ccc(OC)cc2)C(=O)c2cccs2)cc1 ... 0
CC(=O)C1=C(O)C2C3c4c[nH]c5cccc(c45)CC3C(C)(C)N2C1=O (centres undefined) ... 0
COC(=O)c1c(-c2cc(OC)c(OC)c(OC)c2)c2ccc(OCc3ccccn3)cc2c(=O)n1-c1ccc(N)cc1 ... 0

Identify the outcome logged in this assay for the compound shown: "O=c1cc(O)cc(/C=C/c2ccc(O)c(O)c2)o1"
0

Please answer likewise for O=C(CC(Nc1ccccc1)c1ccccc1)C1CC1 (centres undefined)
0

Continue with "O=C(O)CC(CC(=O)O)c1ccc(C(F)(F)F)cc1"
0

Do the same for "O=C1CNC(=S)N1CCc1ccccn1" please
0

Thanks! And "Cc1cccc2nc(-c3ccccc3)oc(=O)c12" ?
0

Input "BrC12CC3CC(CC(C3)C1)C2"
0

Query "O=c1[nH]c(-c2cc(Br)cs2)nc2ccc(Cl)cc12" next
0

Let us now turn to "COc1cc(N=Cc2ccc3c(c2)OCO3)c(OC)cc1Cl"
0

Would you mind doing "c1cc2c(cc1[C@H]1OC[C@H]3[C@@H]1CO[C@H]3c1ccc3c(c1)OCO3)OCO2" as well?
0

Entry to check: "COc1ccc(/C=C/c2cc(O)cc(O[C@@H]3O[C@H](CO)[C@@H](O)[C@H](O)[C@H]3O)c2)cc1O"
0

How about this compound: CC(COc1ccccc1)N(CCCl)Cc1ccccc1 (centres undefined)
0

Please answer likewise for O=C1NC(c2c(F)cccc2Cl)Nc2ccccc21 (centres undefined)
0

And then "O=c1cc(N2CCOCC2)oc2c(-c3ccccc3)cccc12" , what is it?
0

Again, but for "O=C1CC(c2ccccc2)=NO1"
1

Repeat for the following compound: "COc1ccc2c(c1O)-c1cccc3c1[C@@H](C2)N(C)CC3"
0

Now consider "COc1ccccc1N1CCN(Cc2ccc(F)cc2)CC1" and answer again.
0

Next record, please: CC(=O)OCC(=O)[C@@]12OC(C)(C)O[C@@H]1CC1C3C[C@H](F)C4=CC(=O)C=C[C@]4(C)[C@@]3(F)[C@@H](O)C[C@@]12C (some centres undefined)
0

One more compound: CC[C@@H]1[C@@H](O)N2C3C[C@H]1C1C(O)[C@]4(C[C@@H]12)c1ccccc1N(C)[C@@H]34 (some centres undefined)
0
